- STUDY SYSTEM: human D3 receptor (CHO-D3R) (Homo sapiens)
- Sequence (P35462 whole entry): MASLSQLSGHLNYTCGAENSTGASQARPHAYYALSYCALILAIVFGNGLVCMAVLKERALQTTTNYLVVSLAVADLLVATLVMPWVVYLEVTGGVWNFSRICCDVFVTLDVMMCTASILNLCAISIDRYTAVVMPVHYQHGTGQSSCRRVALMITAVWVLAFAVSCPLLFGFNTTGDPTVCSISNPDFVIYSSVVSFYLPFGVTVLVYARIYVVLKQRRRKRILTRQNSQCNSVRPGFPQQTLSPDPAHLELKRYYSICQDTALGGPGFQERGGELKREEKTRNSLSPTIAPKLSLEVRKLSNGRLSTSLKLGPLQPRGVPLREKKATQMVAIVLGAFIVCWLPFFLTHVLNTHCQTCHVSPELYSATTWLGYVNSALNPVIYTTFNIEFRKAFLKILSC
- PROCEDURE DETAILS: [3H]methylspiperone binding to CHO-D3R membranes
- RUN CONDITIONS: read-out: Ki-H (high-affinity Ki) to CHO-hD3; [3H]methylspiperone competition, two-site analysis
OBSERVABLE: Ki (nM)

CCCN1CCO[C@@H]2c3cc(O)ccc3OC[C@H]21 :: 3.7

====

- STUDY SYSTEM: hD3R (Homo sapiens)
- Sequence (P35462 whole entry): as above
- PROCEDURE DETAILS: PathHunter eXpress U2OS D3R β-arrestin-2 recruitment assay
- Format: cell-based
- RUN CONDITIONS: read-out: β-arrestin recruitment EC50, 90 min stimulation
OBSERVABLE: EC50 (nM)

CCCN1CCO[C@@H]2c3cc(O)ccc3OC[C@H]21 :: 5.5
